Where do the numbers come from? From patent US20120177664A1.

Items are presented alongside their recorded kon.
TARGET SYSTEM: T1, A beta oligomer (synthetic A beta1-40, HCl form, 0.1 mg/ml in PBS, incubated at 37 degrees C for one hour) (UniProt P05067 672-711)
T1 construct: domain: A beta1-40; non-fibrous multimer of the peptide; also called A beta 1-40 oligomer
ASSAY EXPLANATION: SPR (Biacore 3000)
Report the figure in M⁻¹ s⁻¹ without appending any unit label.

IR-028 antibody (antibody, V domains shown, mouse IgG2b) VH: DVQLVESGGGLVQPGGSRKLSCAASGFTFSSFGMHWVRQAPEKGLEWVAYISSGSSTIYYADTVKGRFTISRDNPKNTLFLQMTSLRSEDTAMYYCARTGTGAMDYWGQGTSVTVSS VL: DVVMTQTPLSLPVSLGDQASISCRSSQSLVHSNGNTYLHWYLQKPGQSPKLLIYKVSNRFSGVPDRFSGSGSGTDFTLKISRVEAEDLGVYFCSQSTHVPPTFGGGTKLEIK
317000
IR-132 antibody (antibody, mouse IgG2b, V domains shown, mouse IgG2b) VH: DVQLVESGGGLVQPGGSRKLSCAASGFTFSSFGMHWVRQAPEKGLEWVAYISSGSSTIYYADTVKGRFTISRDNPKNTLFLQMTSLRSEDTAMYYCARDGNYVGWFAYWGQGTLVTVSA VL: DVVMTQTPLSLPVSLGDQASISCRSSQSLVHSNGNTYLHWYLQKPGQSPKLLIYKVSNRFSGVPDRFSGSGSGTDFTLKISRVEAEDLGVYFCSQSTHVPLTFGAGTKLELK
234000
IR-154 antibody (antibody, V domains shown, mouse IgG2a) VH: DVQLVESGGGLVQPGGSRKLSCAASGFSFSSFGMHWVRQAPEKGLEWVAYISSGRSTIYYADTVKGRFTISRDNPKNTLFLQMTSLRSEDTAMYYCARLRGNLDYAMDYWGQGTSVTVSS VL: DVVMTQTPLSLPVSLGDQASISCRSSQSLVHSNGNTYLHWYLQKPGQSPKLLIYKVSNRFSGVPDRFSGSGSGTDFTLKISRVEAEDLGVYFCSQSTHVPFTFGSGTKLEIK
389000
IR-083 antibody (antibody, mouse IgG2b, V domains shown, mouse IgG2b) VH: DVQLVESGGGLVQPGGSRKLSCAASGFTFSRFGMYWVRQAPEKGLEWVAYISSGSSTIYYADIVKGRFTISRDNPKNTLFLQMTSLRSEDTAMYYCARRGYYEAMDYWGQGTSVTVSS VL: DVLMTQTPLSLPVSLGDQASISCRSSQSIVHSNGNTYLEWYLQKPGQSPKLLIYKVSNRFSGVPDRFSGSGSGTDFTLKISRVEADDLGVYYCFQGSHVPPTFGGGTKLEIK
617000

Continue with the next binder.
Query (binder): IR-036 antibody (antibody, mouse IgG2b, V domains shown, mouse IgG2b) VH: QVTLKESGPGILQPSQTLSLTCSFSGFSLSTSGMGVSWIRQPSGKGLEWLAHIYWDDDKRYNPSLKSRLTISKDTSRNQVFLKITSVDTADTATYYCARRANYYGYGMDAMDYWGQGTSVTVSS VL: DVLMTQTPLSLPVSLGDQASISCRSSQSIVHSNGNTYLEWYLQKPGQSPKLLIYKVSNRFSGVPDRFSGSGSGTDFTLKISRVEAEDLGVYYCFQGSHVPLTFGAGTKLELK ; field requested: kon
87600
